Test system: NIH Swiss mice fed a high-fat diet for 150 days
Method description: Acute and delayed i.p. glucose tolerance test, blood glucose and plasma insulin
Type: in vivo
Setup conditions: acute, alone and in combination, each 25 nmol/kg i.p. with glucose, Table 5
Method: Plasma glucose and plasma insulin concentrations were measured prior to and after i.p. administration of glucose alone (18 mmol/kg body weight), or in combination with apelin analogues (25 nmol/kg body weight) in 18 h fasted mice fed a high-fat diet for 150 days. […] (A) Blood glucose and (B) plasma insulin was measured before and after i.p. administration of glucose (18 mmol/kg body wt) alone or in combination with apelin analogues. […]
For each record, write down the corresponding Glucose lowering, where glucose alone = 100%.

Guide cases for Glucose lowering, where glucose alone = 100%, answers given:
CSCC[C@H](NC(=O)[C@@H]1CCCN1C(=O)CNC(=O)[C@H](CCCCN)NC(=O)[C@H](Cc1c[nH]cn1)NC(=O)[C@H](CO)NC(=O)[C@H](CC(C)C)NC(=O)[C@H](CCCNC(=N)N)NC(=O)[C@@H]1CCCN1C(=O)[C@H](CCCNC(=N)N)NC(=O)[C@@H](N)CCC(N)=O)C(=O)N1CCC[C@H]1C(=O)N[C@@H](Cc1ccc(O)cc1)C(=O)O : 77% (*)
CSCC[C@H](NC(=O)[C@@H]1CCCN1C(=O)CNC(=O)[C@H](CCCCN)NC(=O)[C@H](Cc1c[nH]cn1)NC(=O)[C@H](CO)NC(=O)[C@H](CC(C)C)NC(=O)[C@H](CCCNC(=N)N)NC(=O)[C@@H]1CCCN1C(=O)[C@H](CCCNC(=N)N)NC(=O)[C@@H](N)CCC(N)=O)C(=O)N1CCC[C@H]1C(=O)N[C@@H](C)C(=O)O [(Ala^13)apelin-13, reference compound] : 118% (*)
CSCC[C@H](NC(=O)[C@@H]1CCCN1C(=O)CNC(=O)[C@H](CCCCN)NC(=O)[C@H](Cc1c[nH]cn1)NC(=O)[C@H](CO)NC(=O)[C@H](CC(C)C)NC(=O)[C@H](CCCNC(=N)N)NC(=O)[C@@H]1CCCN1C(=O)[C@H](CCCNC(=N)N)NC(=O)[C@@H](N)CCC(N)=O)C(=O)N1CCC[C@H]1C(=O)N[C@H](C(=O)O)C(C)C : 124% (**)

// Glucose lowering, where glucose alone = 100% value for CSCC[C@H](NC(=O)[C@@H]1CCCN1C(=O)CNC(=O)[C@H](CCCCN)NC(=O)[C@H](Cc1c[nH]cn1)NC(=O)[C@H](CO)NC(=O)[C@H](CC(C)C)NC(=O)[C@H](CCCNC(=N)N)NC(=O)[C@@H]1CCCN1C(=O)[C@H](CCCNC(=N)N)NC(=O)[C@@H](N)CCC(N)=O)C(=O)N1CCC[C@H]1C(=O)N[C@@H](Cc1ccccc1)C(N)=O [Apelin-13-amide] : 65% (**)

---

Tested on: NIH Swiss mice fed a high-fat diet for 150 days
Method description: Acute and delayed i.p. glucose tolerance test, blood glucose and plasma insulin
Format: in vivo
Setup conditions: acute, peptide 25 nmol/kg i.p. with glucose 18 mmol/kg, Table 4
For each record, write down the corresponding Insulin secretion, where glucose alone = 100%.

Guide cases for Insulin secretion, where glucose alone = 100%, answers given:
CSCC[C@H](NC(=O)[C@@H]1CCCN1C(=O)CNC(=O)[C@H](CCCCN)NC(=O)[C@H](Cc1c[nH]cn1)NC(=O)[C@H](CO)NC(=O)[C@H](CC(C)C)NC(=O)[C@H](CCCNC(=N)N)NC(=O)[C@@H]1CCCN1C(=O)[C@H](CCCNC(=N)N)NC(=O)[C@@H](N)CCC(N)=O)C(=O)N1CCC[C@H]1C(=O)N[C@@H](Cc1ccccc1)C(N)=O [Apelin-13-amide] : 153% (***)
CSCC[C@H](NC(=O)[C@@H]1CCCN1C(=O)CNC(=O)[C@H](CCCCN)NC(=O)[C@H](Cc1cnc[nH]1)NC(=O)[C@H](CO)NC(=O)[C@H](CC(C)C)NC(=O)[C@H](CCCNC(=N)N)NC(=O)[C@@H]1CCCN1C(=O)[C@H](CCCNC(=N)N)NC(=O)[C@@H]1CCC(=O)N1)C(=O)N1CCC[C@H]1C(=O)N[C@@H](C)C(=O)O : 86% (*)

// Insulin secretion, where glucose alone = 100% value for CSCC[C@H](NC(=O)[C@@H]1CCCN1C(=O)CNC(=O)[C@H](CCCCN)NC(=O)[C@H](Cc1cnc[nH]1)NC(=O)[C@H](CO)NC(=O)[C@H](CC(C)C)NC(=O)[C@H](CCCNC(=N)N)NC(=O)[C@@H]1CCCN1C(=O)[C@H](CCCNC(=N)N)NC(=O)[C@@H](N)CCC(N)=O)C(=O)N1CCC[C@H]1C(=O)N[C@@H](Cc1ccccc1)C(=O)O [Apelin-13, reference compound] : 111% ^

---

Method description: Degradation of apelin peptides by plasma from fasted normal NIH Swiss mice (rp-HPLC, MALDI-TOF MS)
Assay type: in vitro ADME
Readout label: Degradation fragment, Peak 2

CSCC[C@H](NC(=O)[C@@H]1CCCN1C(=O)CNC(=O)[C@H](CCCCN)NC(=O)[C@H](Cc1c[nH]cn1)NC(=O)[C@H](CO)NC(=O)[C@H](CC(C)C)NC(=O)[C@H](CCCNC(=N)N)NC(=O)[C@@H]1CCCN1C(=O)[C@H](CCCNC(=N)N)NC(=O)[C@@H]1CCC(=O)N1)C(=O)N1CCC[C@H]1C(=O)N[C@@H](Cc1ccc(O)cc1)C(=O)O [pGlu(Tyr^13)apelin-13, pGlu (Tyr^13)apelin-13] : (1-6)

---

Tested on: NIH Swiss mice fed a high-fat diet for 150 days
Method description: Acute and delayed i.p. glucose tolerance test, blood glucose and plasma insulin
Format: in vivo
Setup conditions: acute, peptide 25 nmol/kg i.p. with glucose 18 mmol/kg, Table 4
For each record, write down the corresponding Insulin secretion, where glucose alone = 100%.

Guide cases for Insulin secretion, where glucose alone = 100%, answers given:
CSCC[C@H](NC(=O)[C@@H]1CCCN1C(=O)CNC(=O)[C@H](CCCCN)NC(=O)[C@H](Cc1c[nH]cn1)NC(=O)[C@H](CO)NC(=O)[C@H](CC(C)C)NC(=O)[C@H](CCCNC(=N)N)NC(=O)[C@@H]1CCCN1C(=O)[C@H](CCCNC(=N)N)NC(=O)[C@@H](N)CCC(N)=O)C(=O)N1CCC[C@H]1C(=O)N[C@@H](Cc1ccc(O)cc1)C(=O)O : 131% (*)
CSCC[C@H](NC(=O)[C@@H]1CCCN1C(=O)CNC(=O)[C@H](CCCCN)NC(=O)[C@H](Cc1c[nH]cn1)NC(=O)[C@H](CO)NC(=O)[C@H](CC(C)C)NC(=O)[C@H](CCCNC(=N)N)NC(=O)[C@@H]1CCCN1C(=O)[C@H](CCCNC(=N)N)NC(=O)[C@@H]1CCC(=O)N1)C(=O)N1CCC[C@H]1C(=O)N[C@H](C(=O)O)C(C)C : 75% (**)

Kindly review the next molecule as well.
// Insulin secretion, where glucose alone = 100% value for CSCC[C@H](NC(=O)[C@@H]1CCCN1C(=O)CNC(=O)[C@H](CCCCN)NC(=O)[C@H](Cc1c[nH]cn1)NC(=O)[C@H](CO)NC(=O)[C@H](CC(C)C)NC(=O)[C@H](CCCNC(=N)N)NC(=O)[C@@H]1CCCN1C(=O)[C@H](CCCNC(=N)N)NC(=O)[C@@H](N)CCC(N)=O)C(=O)N1CCC[C@H]1C(=O)N[C@@H](C)C(=O)O [(Ala^13)apelin-13, reference compound] : 74% (**)
